Ref: ChEMBL document CHEMBL1123855

System: CCRF-CEM
Assay Summary: In vitro antitumor activity was evaluated against human T-lymphoblastic leukemia cell lines; no = No activity
Assay type: functional, cell-based
Value Kind: Cytotoxiciy

> print(dat)
                                   compound   value.kind  endpoint.value
1  CC(=O)OP(=O)(O)C1OC(COCc2ccccc2)C(OCc2ccccc2)C(OCc2ccccc2)C1OCc1ccccc1 (centres undefined)  Cytotoxiciy     No activity
2  O=P(O)(O)[C@H]1O[C@@H](CO)[C@@H](O)[C@H](O)[C@@H]1O  Cytotoxiciy     No activity
3  O=P(O)(O)[C@H]1O[C@@H](CO)[C@H](O)[C@H](O)[C@@H]1O (stereo in doubt; 17)  Cytotoxiciy     No activity
4  O=P(O)(O)[C@H]1O[C@@H](CO)[C@H](O)[C@H](O)[C@@H]1O (stereo in doubt; 19)  Cytotoxiciy     No activity
